- experiment: small molecules increasing insulinoma cell replication – ATP luminescence, uHTS, primary screen (AID 2380);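 further: 0% = DMSO-treated cells in low-serum medium and 100% = 10% serum control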
- run-conditions: MIN6 cells proliferation, ATPlite luminescence, 48 h, at 10 µM
The campaign covered roughly 330,000 compounds. About 960 (0.29%) were called active.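 How the source made its calls: active means compounds whose signal lies at least 3.5 SD above the mean of all wells on their plate; inactive means the rest.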 The sample holds actives, similar compounds and a random draw of the others, so the mix is not that of the screen.
Permitted responses: true (1) (active), false (0) (inactive)

Look over these answered cases.
O=C(N/N=C/c1c(O)n(Cc2ccccc2)c(=O)[nH]c1=O)c1ccccc1 ... true (1)
O=c1[nH]c(=O)n(Cc2ccccc2)c(O)c1/C=N/Nc1c(F)c(F)c(F)c(F)c1F ... false (0)
Cc1cc(OCc2cc(C(=O)O)oc2C)c2c3c(c(=O)oc2c1)CCCC3 ... false (0)
CCC1(C)CC(CCNCc2ccc(N(C)C)cc2)(c2ccc(F)cc2)CCO1 (configuration not stated) ... false (0)

query: What call does the record list for c1cc2c(cc1CCNC1CCCCCC1)OCO2 ?
result: true (1)

query: // param item: COc1ccc(C(=O)CC2C(=O)N(C)C(=O)N(C)C2=O)cc1 ; yields the recorded call
result: false (0)

query: # lookup: test call for CC1(C)Cc2c(C#N)c(N3CCNCC3)nc(-c3ccco3)c2CS1
result: false (0)
